Data origin: ChEMBL document CHEMBL3399956

- Measured On: 15-hydroxyprostaglandin dehydrogenase [NAD(+)] (Homo sapiens)
- Sequence (P15428 whole entry): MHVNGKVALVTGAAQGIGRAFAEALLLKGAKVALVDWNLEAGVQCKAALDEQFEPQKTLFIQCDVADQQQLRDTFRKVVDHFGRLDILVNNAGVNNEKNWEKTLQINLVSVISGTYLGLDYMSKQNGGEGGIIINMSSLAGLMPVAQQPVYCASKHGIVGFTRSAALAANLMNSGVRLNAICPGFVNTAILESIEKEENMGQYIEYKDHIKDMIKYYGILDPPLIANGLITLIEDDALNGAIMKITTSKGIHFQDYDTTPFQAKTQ
Property Name: IC50 (nM)
Response body: numeric value in nM, unit text excluded.

*Q* Recorded IC50 for `O=C1NC(=O)/C(=C/c2ccc(OCCc3ccccc3)c(Br)c2)S1` with 15-hydroxyprostaglandin dehydrogenase [NAD(+)] (Homo sapiens), please?
*A* 4
